Values from ChEMBL document CHEMBL2218924

TEST SYSTEM: Protein kinase C beta type (Homo sapiens) (UniProt P05771)
Sequence (P05771 2-671 limits assumed): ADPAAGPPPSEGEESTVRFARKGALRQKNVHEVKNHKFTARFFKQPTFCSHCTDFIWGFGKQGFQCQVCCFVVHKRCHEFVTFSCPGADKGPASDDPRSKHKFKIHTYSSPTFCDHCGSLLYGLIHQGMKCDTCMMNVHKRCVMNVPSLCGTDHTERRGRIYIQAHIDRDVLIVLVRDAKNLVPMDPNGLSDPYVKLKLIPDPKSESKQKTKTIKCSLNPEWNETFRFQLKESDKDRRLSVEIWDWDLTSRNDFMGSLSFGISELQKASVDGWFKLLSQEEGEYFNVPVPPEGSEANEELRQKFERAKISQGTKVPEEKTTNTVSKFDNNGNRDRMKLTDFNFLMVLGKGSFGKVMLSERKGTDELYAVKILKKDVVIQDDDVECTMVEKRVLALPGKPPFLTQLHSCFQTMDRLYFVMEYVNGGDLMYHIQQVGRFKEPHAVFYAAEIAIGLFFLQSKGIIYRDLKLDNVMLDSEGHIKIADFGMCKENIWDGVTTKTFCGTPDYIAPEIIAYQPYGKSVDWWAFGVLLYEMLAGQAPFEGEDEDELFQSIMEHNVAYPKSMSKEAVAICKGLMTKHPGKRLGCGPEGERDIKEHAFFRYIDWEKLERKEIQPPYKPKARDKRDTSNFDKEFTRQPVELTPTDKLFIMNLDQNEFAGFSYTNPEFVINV
CONDITION: at 1 µM
EXPERIMENTAL ENDPOINT: residual activity
Respond with a number, then the unit of measure.

MOLECULE | residual activity
Cc1cc(Nc2nc(-c3ccccc3)nc3ccccc23)n[nH]1 | 106%

Task item: Hi! What's the reported residual activity for `Ic1cccc(CSc2nnc(-c3ccncc3)o2)c1` on Protein kinase C beta type (Homo sapiens) (UniProt P05771)?
Reply: 95%

Task item: Hi! What's the reported residual activity for `O=C(Nc1cccc(Nc2cc(Nc3cccc(C(F)(F)F)c3)ncn2)c1)C1CC1` on Protein kinase C beta type (Homo sapiens) (UniProt P05771)?
Reply: 98%

Task item: Hi! What's the reported residual activity for `Cc1cc2ncc(-c3ccccc3)nc2cc1C` on Protein kinase C beta type (Homo sapiens) (UniProt P05771)?
Reply: 100%

Task item: Hi! What's the reported residual activity for `Cc1nc2cc3nc(-c4cccs4)cnc3cc2n1C` on Protein kinase C beta type (Homo sapiens) (UniProt P05771)?
Reply: 99%

Task item: Hi! What's the reported residual activity for `COc1ccc(CNc2nc(N(CCO)CCO)nc3c2ncn3C(C)C)cc1` on Protein kinase C beta type (Homo sapiens) (UniProt P05771)?
Reply: 87%

Task item: Hi! What's the reported residual activity for `Nc1ccc2ncnc(NCCc3ccc(Oc4ccccc4)cc3)c2c1` on Protein kinase C beta type (Homo sapiens) (UniProt P05771)?
Reply: 118%

----------
TEST SYSTEM: Ribosomal protein S6 kinase beta-1 (Homo sapiens) (UniProt P23443)
Sequence (P23443 whole entry, looked up): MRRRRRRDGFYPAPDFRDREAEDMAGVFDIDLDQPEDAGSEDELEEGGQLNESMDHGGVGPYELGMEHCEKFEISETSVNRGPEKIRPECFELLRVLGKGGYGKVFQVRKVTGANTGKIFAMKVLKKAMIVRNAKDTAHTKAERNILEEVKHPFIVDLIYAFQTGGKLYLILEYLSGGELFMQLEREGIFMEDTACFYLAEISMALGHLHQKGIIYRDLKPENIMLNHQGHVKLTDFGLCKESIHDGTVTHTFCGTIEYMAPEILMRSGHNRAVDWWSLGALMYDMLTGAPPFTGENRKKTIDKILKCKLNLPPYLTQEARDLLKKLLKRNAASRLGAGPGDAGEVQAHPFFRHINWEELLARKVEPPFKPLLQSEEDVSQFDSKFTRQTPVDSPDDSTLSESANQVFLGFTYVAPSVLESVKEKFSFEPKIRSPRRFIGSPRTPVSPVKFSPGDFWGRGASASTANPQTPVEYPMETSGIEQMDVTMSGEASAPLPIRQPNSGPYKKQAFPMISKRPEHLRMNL
CONDITION: at 10 µM
EXPERIMENTAL ENDPOINT: residual activity (%)
Answer in %, number only, no unit symbol.

Example cases with answers are listed next.
SMILES NOTATION | EXPERIMENTAL ENDPOINT | RESULT
COc1ccc(CNc2nc(N(CCO)CCO)nc3c2ncn3C(C)C)cc1 | residual activity | 49
O=Nc1c(-c2c(O)[nH]c3ccccc23)[nH]c2ccccc12 | residual activity | 13
Oc1ccc(Nc2nc(-c3ccc(Cl)cc3)cs2)cc1 | residual activity | 87

Task item: Which residual activity is reported for this compound? `Nc1n[nH]c2nnc(-c3c(-c4ccccc4)nn4ccccc34)cc12`
Reply: 100

Task item: Which residual activity is reported for this compound? `CC#CC(=O)Nc1cc2c(Nc3ccc(F)c(Cl)c3)ncnc2cn1`
Reply: 98

Task item: Which residual activity is reported for this compound? `Ic1cccc(CSc2nnc(-c3ccncc3)o2)c1`
Reply: 32

----------
TEST SYSTEM: Ribosomal protein S6 kinase alpha-3 (Homo sapiens) (UniProt P51812)
Sequence (P51812 whole entry): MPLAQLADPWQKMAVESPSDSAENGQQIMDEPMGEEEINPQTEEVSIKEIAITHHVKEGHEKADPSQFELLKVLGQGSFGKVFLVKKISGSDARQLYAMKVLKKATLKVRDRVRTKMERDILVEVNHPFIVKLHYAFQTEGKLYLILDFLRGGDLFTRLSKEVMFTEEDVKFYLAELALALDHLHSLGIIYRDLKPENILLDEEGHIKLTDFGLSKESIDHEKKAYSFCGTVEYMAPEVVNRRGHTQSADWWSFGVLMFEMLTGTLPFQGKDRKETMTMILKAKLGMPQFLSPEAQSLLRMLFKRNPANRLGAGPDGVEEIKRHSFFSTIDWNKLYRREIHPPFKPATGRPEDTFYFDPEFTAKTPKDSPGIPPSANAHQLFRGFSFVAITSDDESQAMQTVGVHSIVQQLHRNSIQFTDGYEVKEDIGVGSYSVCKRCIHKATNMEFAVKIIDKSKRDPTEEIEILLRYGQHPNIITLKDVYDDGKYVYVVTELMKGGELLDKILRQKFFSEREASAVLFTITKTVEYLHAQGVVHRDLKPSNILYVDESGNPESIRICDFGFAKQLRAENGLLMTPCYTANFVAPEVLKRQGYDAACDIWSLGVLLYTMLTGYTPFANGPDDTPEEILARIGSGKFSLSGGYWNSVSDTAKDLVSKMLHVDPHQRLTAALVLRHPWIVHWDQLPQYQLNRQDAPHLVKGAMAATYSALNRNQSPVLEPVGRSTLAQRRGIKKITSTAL
CONDITION: at 1 µM
EXPERIMENTAL ENDPOINT: residual activity (%)
Answer in %, number only, no unit symbol.

Example cases with answers are listed next.
SMILES NOTATION | DISPLAY UNIT | residual activity
CCOc1cc2ncnc(Nc3cccc(Br)c3)c2cc1OCC | % | 102
COc1cc2ncnc(Nc3ccc(O)c(Br)c3)c2cc1OC | % | 39
Cc1ccc(S(=O)(=O)/C=C/C#N)cc1 | % | 116
CCN(CC)CCCCN1c2ccccc2Oc2ccc(Cl)cc21 | % | 67
N#CCCc1ccc2c(c1)-c1[nH]c3ccc([N+](=O)[O-])cc3c1CC(=O)N2 | % | 9

Alright, here's another molecule for you.
Task item: Which residual activity is reported for this molecule? `O=C(Nc1cccc(Nc2nccc(Nc3cccc(C(F)(F)F)c3)n2)c1)C1CC1`
Reply: 45
